Give EC50 for every item shown.
Molecular target: TRP-M8 receptor (Homo sapiens)
Assay: Patch-clamp whole-cell recordings in TRP-M8 transfected HEK cells
Type: cell-based
Design: expressed in transfected cells; host or cells: HEK (human embryonic kidney) cells, permanently transfected
Details: whole-cell configuration, room temperature (20-23° C.)
Give bare numbers, in nM.

Past entries and their recorded results:
>  <compound>
CC1CCC(C(C)C)C(C(=O)Nc2ccc(F)cc2)C1 (stereo not shown) [CPS-124]

>  <unit.tag>
nM

>  <EC50>
1200

$$$$
>  <compound>
O=C1NC(c2cccc([N+](=O)[O-])c2)=CCN1c1ccccc1O [icilin, reference compound]

>  <unit.tag>
nM

>  <EC50>
1400

$$$$
>  <compound>
COc1ccc(NC(=O)C2CC(C)CCC2C(C)C)c(I)c1 (stereo not shown) [CPS-129]

>  <unit.tag>
nM

>  <EC50>
300

$$$$
>  <compound>
CC1CCC(C(C)C)C(C(=O)Nc2ccc(S(=O)(=O)Nc3ncccn3)cc2)C1 (stereo not shown) [CPS-125]

>  <unit.tag>
nM

>  <EC50>
3000

$$$$

Give one value of EC50 per listed compound.
1. COc1ccc(NC(=O)C2CC(C)CCC2C(C)C)cc1 (stereo not shown) [CPS-112 (WS-12)]
2. CC1CCC(C(C)C)C(C(=O)N(C)C[C@H](O)c2cccc(O)c2)C1 (stereo partly shown) [CPS-195]
3. COc1ccc(NC(=O)C2CC(C)CCC2C(C)C)cc1F (stereo not shown) [CPS-113]

Response line:
1: 200; 2: 100; 3: 1200

###

Molecular target: UniProt:Q7Z2W7
Experiment: FLIPR calcium influx assay in HEK cells transfected with human TRP-M8
Type: cell-based
Design: expressed in transfected cells; host or cells: HEK (human embryonic kidney) cells, permanently transfected
Details: HEK cells with human TRP-M8, Fura-2, 29 or 37° C.
Record form. Attribute: EC50. Fill in for each entry.
Give bare numbers, in µM.

Please review the entries below; each comes with its answer.
>  <compound>
CC1CCC(C(C)C)C(C(=O)Nc2ccc(Br)cc2)C1 (centres unmarked)

>  <EC50 / µM>
6

$$$$
>  <compound>
CC1CCC(C(C)C)C(C(=O)Nc2ccc(I)cc2)C1 (centres unmarked)

>  <EC50 / µM>
10

$$$$

// next item, EC50 requested
Prompt line: # query: EC50 of entry COc1ccc(NC(=O)C2CC(C)CCC2C(C)C)cc1 (centres unmarked)
Response line: 0.6

###

Target: TRP-M8 receptor (Homo sapiens, UniProt Q7Z2W7)
Sequence (Q7Z2W7 whole entry): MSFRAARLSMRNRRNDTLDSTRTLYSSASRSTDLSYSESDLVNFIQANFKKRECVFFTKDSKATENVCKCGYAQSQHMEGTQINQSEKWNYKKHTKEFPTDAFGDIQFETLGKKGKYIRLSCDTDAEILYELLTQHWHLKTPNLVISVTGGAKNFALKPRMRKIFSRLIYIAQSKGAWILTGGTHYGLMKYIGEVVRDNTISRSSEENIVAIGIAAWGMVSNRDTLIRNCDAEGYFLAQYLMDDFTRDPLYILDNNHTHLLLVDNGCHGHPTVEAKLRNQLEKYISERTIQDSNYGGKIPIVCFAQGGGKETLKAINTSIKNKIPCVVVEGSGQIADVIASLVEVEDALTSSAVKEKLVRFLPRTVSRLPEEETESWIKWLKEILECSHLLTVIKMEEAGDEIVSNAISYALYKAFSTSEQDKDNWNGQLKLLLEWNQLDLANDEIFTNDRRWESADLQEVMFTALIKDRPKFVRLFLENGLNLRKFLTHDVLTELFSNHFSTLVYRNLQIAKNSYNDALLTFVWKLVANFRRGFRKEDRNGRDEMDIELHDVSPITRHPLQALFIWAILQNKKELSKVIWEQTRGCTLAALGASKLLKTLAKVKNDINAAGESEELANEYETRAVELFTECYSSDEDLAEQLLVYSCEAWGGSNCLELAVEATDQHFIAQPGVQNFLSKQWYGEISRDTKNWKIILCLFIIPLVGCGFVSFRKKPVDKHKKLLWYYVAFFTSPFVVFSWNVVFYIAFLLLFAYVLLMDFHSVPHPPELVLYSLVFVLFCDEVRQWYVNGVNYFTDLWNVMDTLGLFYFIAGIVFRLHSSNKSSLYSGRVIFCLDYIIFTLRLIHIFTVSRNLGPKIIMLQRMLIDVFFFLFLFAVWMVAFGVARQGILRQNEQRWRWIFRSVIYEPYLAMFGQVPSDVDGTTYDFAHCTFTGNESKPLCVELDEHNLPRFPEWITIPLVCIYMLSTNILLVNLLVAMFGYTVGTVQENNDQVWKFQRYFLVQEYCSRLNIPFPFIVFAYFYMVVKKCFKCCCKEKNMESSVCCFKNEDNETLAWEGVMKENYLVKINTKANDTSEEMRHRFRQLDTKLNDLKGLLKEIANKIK
Assay: FLIPR calcium influx assay in HEK cells transfected with human TRP-M8
Format: cell-based
Set-up: expressed in transfected cells; host or cells: HEK (human embryonic kidney) cells, permanently transfected
Conditions: HEK cells with human TRP-M8, Fura-2, 29 or 37° C.
reported.endpoint: pEC50
Numbers only, as −log10 of the molar value.

In the examples that follow, each entry is paired with its recorded pEC50.
>  <compound>
CC1CCC(C(C)C)C(C(=O)Nc2ccc(S(=O)(=O)Nc3ncccn3)cc2)C1 (stereo not drawn)

>  <number>
5.22

$$$$
>  <compound>
COc1ccc(NC(=O)C2CC(C)CCC2C(C)C)cc1F (stereo not drawn)

>  <number>
5.89

$$$$
>  <compound>
COc1cccc(NC(=O)C2CC(C)CCC2C(C)C)c1 (stereo not drawn)

>  <number>
5.22

$$$$
>  <compound>
O=C1NC(c2cccc([N+](=O)[O-])c2)=CCN1c1ccccc1O [icilin, reference compound]

>  <number>
6.10

$$$$
>  <compound>
CC1CCC(C(C)C)C(C(=O)Nc2ccc(F)cc2)C1 (stereo not drawn)

>  <number>
5.89

$$$$

Prompt line: Form field - read-out: pEC50; system: TRP-M8 receptor (Homo sapiens, UniProt Q7Z2W7); submitted item: CCOc1ccc(NC(=O)C2CC(C)CCC2C(C)C)cc1 (stereo not drawn)
Response line: 6.30

###

Biological target: TRP-M8 receptor (Homo sapiens, UniProt Q7Z2W7)
Assay: Cold sensation threshold on tongue (filter paper test)
Format: in vivo
Design: The endogenous TRP-M8 receptor is a physiological receptor designed to detect temperature changes; from tissue; host or cells: tongue (sensory nerve endings), in vivo
Conditions: filter paper 1 × 1 cm impregnated with compound, on tongue, 30 sec; presence or absence of cooling
reported.endpoint: Cold Sensation Threshold on Tongue
Field: value (include unit after the number)

>  <molecule>
CC1CCC(C(C)C)C(C(=O)Nc2ccc([N+](=O)[O-])cc2)C1 (stereo not shown)

>  <result>
0.3 µg

$$$$
>  <molecule>
Cc1ccc(NC(=O)C2CC(C)CCC2C(C)C)cc1O (stereo not shown)

>  <result>
0.1 µg

$$$$
>  <molecule>
Cc1ccc(NC(=O)C2CC(C)CCC2C(C)C)c(C)c1 (stereo not shown)

>  <result>
0.1 µg

$$$$
>  <molecule>
CC1CCC(C(C)C)C(C(=O)NCc2ccccc2)C1 (stereo not shown)

>  <result>
20 µg

$$$$
>  <molecule>
CCC1(C(=O)Nc2ccc(OC)cc2)CCCCCC1C (stereo not shown)

>  <result>
6 µg

$$$$
>  <molecule>
Cc1ccc(NC(=O)C(C)(C(C)C)C(C)C)cc1C

>  <result>
3 µg

$$$$
>  <molecule>
CC1CCC(C(C)C)C(C(=O)Nc2ccccc2O)C1 (stereo not shown)

>  <result>
0.5 µg

$$$$
>  <molecule>
COc1ccc(NC(=O)C2(C(C)C)CCCCCC2)cc1OC

>  <result>
5 µg

$$$$

# return Cold Sensation Threshold on Tongue for each item in the list
1. Cc1ccc(NC(=O)C2(C(C)C)CCCCCC2)c(C)c1
2. Cc1ccc(NC(=O)C2(C(C)C)CCCCCC2)cc1O
3. Cc1ccc(NC(=O)C2(C(C)C)CCCCCC2)cc1C
4. CC1CCC(C(C)C)C(C(=O)Nc2ccccc2)C1 (stereo not shown)

Response line:
["15 µg", "1 µg", "15 µg", "20 µg"]

For every record below, what is its Cold Sensation Threshold on Tongue?
1. CC1CCC(C(C)C)C(C(=O)Nc2ccc(Cl)cc2)C1 (stereo not shown)
2. Cc1ccc(NC(=O)C(C)(C(C)C)C(C)C)c(C)c1
3. COc1ccc(NC(=O)C(C)(CC(C)C)C(C)C)cc1 (stereo not shown)
4. CCOC(=O)c1ccc(NC(=O)C2CC(C)CCC2C(C)C)cc1 (stereo not shown)

Response line:
1. 8 µg
2. 1 µg
3. 2 µg
4. 5 µg

Lab note: each molecule below needs its Cold Sensation Threshold on Tongue filled in.
1. CC1CCC(C(C)C)C(C(=O)Nc2ccc(O)cc2)C1 (stereo not shown)
2. COc1ccc(NC(=O)C2(C(C)C)CCCCCC2)c(C)c1
3. CC1CCC(C(C)C)C(C(=O)Nc2ccc(F)cc2)C1 (stereo not shown)
4. COc1ccc(NC(=O)C(C)(C(C)C)C(C)C)cc1
5. COc1ccc(NC(=O)C2CC(C)CCC2C(C)C)cc1 (stereo not shown)
6. CC(=O)c1ccc(NC(=O)C2CC(C)CCC2C(C)C)cc1 (stereo not shown)

Response line:
1: 1 µg; 2: 0.2 µg; 3: 0.5 µg; 4: 0.5 µg; 5: 0.1 µg; 6: 2 µg
